- studySystem: X-box-binding protein 1 (Homo sapiens)
- testDescription: ATG_Xbp1_CIS: Attagene CIS-FACTORIAL HepG2 Assay for human X-box Binding Protein 1 (XBP1) (AID 2282972)
- cond: HepG2 XBP1 cis-element reporter, Attagene multiplex; actives raise or lower the signal
Active and inactive are the calls of the source. How the source made its calls: active means hit-call score of the fitted dose curve at least 0.9, where 1 is the maximum; inactive means score below 0.9.
Outcome codes: TRUE for active, FALSE for inactive

CCOCCOCC ... FALSE
Oc1c(Cl)cc(Cl)cc1Sc1cc(Cl)cc(Cl)c1O ... TRUE
O=C(C=C(O)C(F)(F)F)C(F)(F)F ... FALSE
CC1CCC(C(=O)O)CC1 (centres undefined) ... FALSE

---

- studySystem: human Dopamine Transporter (DAT), SLC6A3 (gene 6531)
- testDescription: NVS_TR_hDAT: NovaScreen (NVS) Transporter Assay for human Dopamine Transporter (DAT) (AID 2283374);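 further: activity means loss of bound radioligand signal relative to DMSO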
Results filed as inconclusive are left out. Active and inactive are the calls of the source. The calls were made as follows: active = hit-call score of the fitted dose curve at least 0.9, where 1 is the maximum; inconclusive = response in the unintended direction; inactive = score below 0.9.
Outcome codes: class 1 for active, class 0 for inactive

CCCCN(C)C ... class 0
CCCCCCCCCCCCCCCCCC[N+](C)(C)Cc1ccccc1 ... class 0
O=C(c1ccccc1)c1ccccc1 ... class 0
CCOC(OCC)C(=O)c1ccccc1 ... class 1
CN(Cc1cnc2nc(N)nc(N)c2n1)c1ccc(C(=O)N[C@@H](CCC(=O)O)C(=O)O)cc1 ... class 1
N=C(N)c1ccc(OCCCCCOc2ccc(C(=N)N)cc2)cc1 ... class 1
Oc1cccc2c(O)cccc12 ... class 1

---

- studySystem: human Thyroid Receptor Alpha (TRa), THRA (gene 7067) (UniProt P10827)
- Sequence (P10827 whole entry, looked up): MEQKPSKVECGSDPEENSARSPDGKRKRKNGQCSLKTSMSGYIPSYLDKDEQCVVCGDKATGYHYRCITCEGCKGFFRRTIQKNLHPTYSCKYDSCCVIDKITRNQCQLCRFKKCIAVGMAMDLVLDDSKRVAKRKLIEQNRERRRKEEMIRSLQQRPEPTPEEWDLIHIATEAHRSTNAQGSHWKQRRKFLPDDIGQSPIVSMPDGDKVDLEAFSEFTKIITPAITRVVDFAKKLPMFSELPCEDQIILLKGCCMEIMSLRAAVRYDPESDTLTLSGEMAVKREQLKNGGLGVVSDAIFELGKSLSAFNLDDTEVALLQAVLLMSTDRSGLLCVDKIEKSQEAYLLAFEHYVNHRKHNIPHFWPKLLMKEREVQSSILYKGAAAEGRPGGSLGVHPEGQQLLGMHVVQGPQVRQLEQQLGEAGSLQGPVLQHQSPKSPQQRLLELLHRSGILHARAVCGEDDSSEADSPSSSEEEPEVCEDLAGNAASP
- testDescription: NVS_NR_hTRa_Antagonist: NovaScreen (NVS) Nuclear Receptor Binding Assay for human Thyroid Receptor Alpha Antagonism (TRa) (AID 2283362);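 further: activity is loss of signal relative to DMSO baseline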
Results filed as inconclusive are left out. Calls of active or inactive are those of the source. Rule for the calls: active = hit-call score of the fitted dose curve at least 0.9, where 1 is the maximum; inconclusive = response in the unintended direction; inactive = score below 0.9.
Outcome codes: active, inactive

Cc1[nH]nc2c1N=C(c1ccccc1Cl)c1cc([N+](=O)[O-])ccc1N2 ... inactive
c1cnc2c(c1)ccc1cccnc12 ... active
CCCCC=O ... inactive
Cc1cc(C(=C2C=CC(=Nc3ccc(S(=O)(=O)O)cc3)C=C2)c2ccc(Nc3ccc(S(=O)(=O)O)cc3)cc2)cc(S(=O)(=O)O)c1N ... inactive

---

- testDescription: CCTE_Shafer_MEA_acute_per_network_burst_electrodes_number_mean: CCTE's Neural Acute Assay for Mean Number of Electrodes in a Network Burst, Shafer Lab (AID 2284021);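 further: curves fitted for decreases only so hits reduce electrodes per burst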
Activity calls are given as the source filed them. How the source made its calls: active means hit-call score of the fitted dose curve at least 0.9, where 1 is the maximum; inactive means score below 0.9.
Outcome codes: active, inactive

CCCCC=O ... inactive
CCCCCCCCCCCC ... inactive
CC(=O)Nc1ccc(O)cc1 ... inactive
Oc1ccc(Cc2ccccc2O)cc1 ... inactive
N=C(N)c1ccc(OCCCCCOc2ccc(C(=N)N)cc2)cc1 ... active

---

- Read-out: Collagen III, COL3A1 (gene 1281)
- testDescription: BSK_MyoF_CollagenIII: BioMAP Diversity Plus: MyoF Assay for Collagen III Biomarker Activity (AID 2284239)
- cond: primary human lung fibroblasts
Calls of active or inactive are those of the source. Rule for the calls: active = hit-call score of the fitted dose curve at least 0.9, where 1 is the maximum; inactive = score below 0.9.
Outcome codes: active, inactive

CCCCCc1ccc(O)cc1 ... active
C=CC(=C)CC/C=C(\C)CCC=C(C)C ... inactive
CC[N+](CC)(CC)Cc1ccccc1 ... inactive
CN(Cc1cnc2nc(N)nc(N)c2n1)c1ccc(C(=O)N[C@@H](CCC(=O)O)C(=O)O)cc1 ... inactive
C=COC(=O)C(C)(C)CCCCCC ... active
CCOC(=O)CN[C@@H](C(=O)N1CC[C@H]1C(=O)NCc1ccc(/C(N)=N/O)cc1)C1CCCCC1 ... inactive

---

- studySystem: Peroxisome proliferator-activated receptor gamma (Homo sapiens)
- testDescription: ATG_PPARg_TRANS: Attagene TRANS-FACTORIAL HepG2 Assay for human Peroxisome Proliferator-activated Receptor-gamma (PPARg) (AID 2283007)
Inconclusive results are not listed. Active and inactive are the calls of the source. Rule for the calls: active = hit-call score of the fitted dose curve at least 0.9, where 1 is the maximum; inconclusive = response in the unintended direction; inactive = score below 0.9.
Outcome codes: active, inactive

c1ccc(CNc2ncnc3c2ncn3C2CCCCO2)cc1 (stereo unspecified) ... active
CC(C)(C)c1ccc(CCC=O)cc1 ... inactive
C/C=C/C(=O)C1=C(C)CCCC1(C)C ... active
NCc1cccc(CN)c1 ... inactive
O=C1C=CC(=O)N1c1cccc(N2C(=O)C=CC2=O)c1 ... inactive
CN(Cc1cnc2nc(N)nc(N)c2n1)c1ccc(C(=O)N[C@@H](CCC(=O)O)C(=O)O)cc1 ... inactive
O=C(F)C(F)(F)C(F)(F)C(F)(F)C(F)F ... inactive
Cc1ccc(N=Nc2c(O)ccc3ccccc23)c(C)c1 ... active
NS(=O)(=O)O ... inactive
NNc1nc(-c2ccc([N+](=O)[O-])cc2)cs1 ... active
CCCCCCCCCCCCCCCCCC[N+](C)(C)Cc1ccccc1 ... active
Cc1cncc(C)c1 ... inactive
O=C1c2ccccc2C(=O)c2c(O)c(O)cc(O)c21 ... active
CC(C)[C@@H]1CC[C@@H](C)C[C@H]1O ... inactive
FC(F)(F)C1(F)C(F)(F)C(F)(F)C(F)(F)C1(F)F ... inactive
FC(OC(F)(F)C(F)(F)C(F)(F)F)C(F)(F)F (stereo unspecified) ... inactive

---

- testDescription: ATG_AP_1_CIS: Attagene CIS-FACTORIAL HepG2 Assay for human Activator Protein 1 (AP-1) (AID 2282931)
- cond: HepG2 Attagene cis-factorial AP-1 reporter mRNA; actives raise or lower the signal
Active and inactive are the calls of the source. How the source made its calls: active means hit-call score of the fitted dose curve at least 0.9, where 1 is the maximum; inactive means score below 0.9.
Outcome codes: class 1 = active, class 0 = inactive

NNc1nc(-c2ccc([N+](=O)[O-])cc2)cs1 ... class 1
CCOC(=O)c1nc(C(Cl)(Cl)Cl)n(-c2ccc(Cl)cc2Cl)n1 ... class 1
CC(C)(C)C1CCCCC1O (configuration not stated) ... class 0
CC(C)(O)C(=O)c1ccccc1 ... class 0
CCCCCCCCCCCC(=O)NCCCN(C)C ... class 0
O=C(OC(=O)C(F)(F)C(F)(F)F)C(F)(F)C(F)(F)F ... class 0
O=C(c1ccccc1)c1ccccc1 ... class 0
O=C(Nc1ccc(Cl)c(Cl)c1)c1cc(Cl)cc(Cl)c1O ... class 0
O=C(O)CCC(F)(F)C(F)(F)C(F)(F)C(F)(F)C(F)(F)F ... class 0
NCc1cccc(CN)c1 ... class 0
CN(CCO)S(=O)(=O)C(F)(F)C(F)(F)C(F)(F)C(F)(F)C(F)(F)C(F)(F)C(F)(F)C(F)(F)F ... class 0
O=C1OC(=O)c2cc(-c3ccc4c(c3)C(=O)OC4=O)ccc21 ... class 0

---

- studySystem: X-box-binding protein 1 (Homo sapiens) (UniProt P17861)
- Sequence (P17861 whole entry, looked up): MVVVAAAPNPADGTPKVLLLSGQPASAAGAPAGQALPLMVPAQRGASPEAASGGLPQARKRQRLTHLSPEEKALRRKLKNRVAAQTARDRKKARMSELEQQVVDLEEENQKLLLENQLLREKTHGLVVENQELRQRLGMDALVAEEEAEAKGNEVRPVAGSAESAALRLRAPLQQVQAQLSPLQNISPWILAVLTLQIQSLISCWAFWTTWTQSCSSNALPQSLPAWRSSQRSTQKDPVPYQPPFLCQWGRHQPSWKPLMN
- testDescription: ATG_Xbp1_CIS: Attagene CIS-FACTORIAL HepG2 Assay for human X-box Binding Protein 1 (XBP1) (AID 2282972)
- cond: HepG2 XBP1 cis-element reporter, Attagene multiplex; actives raise or lower the signal
The source made the active and inactive calls. How the source made its calls: active means hit-call score of the fitted dose curve at least 0.9, where 1 is the maximum; inactive means score below 0.9.
Outcome codes: active, inactive

FC(F)(F)N1C(F)(F)C(F)(F)OC(F)(F)C1(F)F ... inactive
Brc1ccc(Oc2ccc(Br)cc2Br)cc1 ... inactive
Clc1ccc2c(Cl)ccnc2c1 ... inactive
CCC(=O)O ... inactive
CCCCC(CC)C(=O)OCCOCCOCCOCCOC(=O)C(CC)CCCC (stereo not drawn) ... inactive
O=P(O)(O)CCC(F)(F)C(F)(F)C(F)(F)C(F)(F)C(F)(F)C(F)(F)C(F)(F)C(F)(F)F ... inactive
O=C(O)c1cccc(C(=O)O)n1 ... inactive
C=COC(=O)C(C)(C)CCCCCC ... inactive
FC(F)(F)C1(F)C(F)(F)C(F)(F)C(F)(F)C1(F)F ... inactive
Cn1sccc1=O ... active
O=C(NCc1ncc(C(F)(F)F)cc1Cl)c1c(Cl)cccc1Cl ... inactive
CCCCCCCCCCCC[N+](C)(C)CCCCCCCCCCCC ... inactive
COC(=O)C(F)(F)C(F)(F)C(F)(F)F ... inactive

---

- Read-out: Thrombomodulin, THBD (gene 7056)
- testDescription: BSK_3C_Thrombomodulin: BioMAP Diversity Plus: 3C Assay for Thrombomodulin Biomarker Activity (AID 2283029)
- cond: primary human endothelial cells (HUVEC); actives raise or lower the signal
Active and inactive are the calls of the source. The calls were made as follows: active = hit-call score of the fitted dose curve at least 0.9, where 1 is the maximum; inactive = score below 0.9.
Outcome codes: YES for active, NO for inactive

CCCCCc1ccc(O)cc1 ... YES
O=C(c1ccccc1)c1ccccc1 ... NO
NC(=NCCCCCCN=C(N)/N=C(\N)Nc1ccc(Cl)cc1)/N=C(\N)Nc1ccc(Cl)cc1 ... YES
O=C(NO)c1ccccc1 ... NO
O=C(CC(=O)C(F)(F)C(F)(F)C(F)(F)F)c1cccs1 ... NO
C=CC(=O)OCCC(F)(F)C(F)(F)C(F)(F)C(F)(F)C(F)(F)C(F)(F)C(F)(F)C(F)(F)F ... NO
COc1cccc(O)c1 ... NO
Cc1cccc2c1ccc1ccccc12 ... NO
CCCCCCCCCCCCCCC ... NO
OCCN1CN(CCO)CN(CCO)C1 ... NO
COCN(COC)c1nc(N(COC)COC)nc(N(COC)COC)n1 ... NO
O=C(CCCN1CCC(O)(c2ccc(Cl)cc2)CC1)c1ccc(F)cc1 ... NO
CC(C)(C)c1ccc(O)c(O)c1 ... NO
O=C1NS(=O)(=O)c2ccccc21 ... NO
CCCCCCCCCCCCOS(=O)(=O)O ... NO
Cc1ccc(N=Nc2c(O)ccc3ccccc23)c(C)c1 ... NO
CN(C)CCOC(c1ccccc1)c1ccccc1 ... NO
CS(=O)(=O)c1ccc([C@@H](CC2CCCC2)C(=O)Nc2cnccn2)cc1Cl ... NO
COC1=CC(=O)C[C@@H](C)[C@]12Oc1c(Cl)c(OC)cc(OC)c1C2=O ... NO
C[C@]12CC[C@@H]3c4ccc(O)cc4CC[C@H]3[C@@H]1C[C@@H](O)[C@@H]2O ... NO
CCCCC(CC)C(=O)O (configuration not stated) ... NO
O=C(O)CCC(F)(F)C(F)(F)C(F)(F)C(F)(F)C(F)(F)F ... NO
O=C1OC2(c3ccccc31)c1cc(I)c(O)c(I)c1Oc1c2cc(I)c(O)c1I ... YES
CN(Cc1cnc2nc(N)nc(N)c2n1)c1ccc(C(=O)N[C@@H](CCC(=O)O)C(=O)O)cc1 ... NO
CC1=NN(c2ccccc2)C(=O)C1 ... NO
CCCCC(CC)C(=O)OCCOCCOCCOCCOC(=O)C(CC)CCCC (configuration not stated) ... NO
OCC(CO)(CBr)CBr ... NO
